Every entry's value here was drawn from a protein production outcome set (Wang et al. 2014).

measurement_description: label from the status in PepcDB records
endpoint_name: protein production

Examples with their reported protein production follow.
MSKAIVLDSHLKEKGSVELPKRYESINSHNLYLYVKHYLSSARANTAKSKNRAEVSGGGRKPWAQKGGGRARAGSITSPVFVGGGVSHGATNNRNYNLKINKKQKRLALEYALEEKAQANKLFVVEKIAIKGVVEDNKRKHLTKEANQMFQALEQRDTLFVCMNMDEYTELAFSNLKKCLIVDVSELNAYLLAAFSSVVMEEAAFQHVVQDKTEE : failed
MTHQVIDCLGVVLAGGLSSRMGQDKAQLKRLQKTTDPSAKSAHSMLDFSKQLLADAGIKNIVISGDNHQIPDRVPHAGPVGGIYSVLSHYLANSPEHLQPKALLILPVDLPLMTASALTELRLKGELSHKATFFSDRQKNRHHIPLYLPNNAFLNMFLMQAFHREELLANSKGNNKKNGPSVRAMLEQVPHQAIASLNNQVLFNTNTPEQWQQAQQKF : failed
MNLYADYEYYTSTYKGNLAKEEFEKSIMKASAYVRRITFGRADDNMEMEEVKLAACSVCDLIANDEKVRSKHSGRAVTSENTDGYSVSYESGGNGETADDLLKRNIFDTLLLYLEPTRLLYMGVELLEHHHHHH : not failed
SAPPKQSWEQAVDTLRDIGALNAAGQITELGRTLATLPTDPRLGASLLHCGGGAAPTIAALSLDARGDIPRAIAAMSHQQRFTREVARLAGFVP : failed
MQFGIFTVGDVTPDPTTGRTPTEHERIKAMTTIAKHAEDVGLDVFATGEHHNPPFVPSSPTTMLGYLAAQTEKIILSTSTTLITTNDPVKIAEDYAMLQHLADGRVDLMMGRGNTAPVYPWFGQDIRQGIPLALEHYRLLRRLWDEDVVDWQGQFRTPLQGFTSTPRPLDGIAPFVWHGSIRSPEIAEIAAFHGDGFFANNIFWPKEHYIALINLYRERYEHYGHGRADQAIVGLGGQVFMRRNAKDAVDEFRPYFDNAPVYGHGPSLEDFTEQTPLTVGTPEQVIEKTLTFADFFGDYQRQLFLVDHAGLPLKTVLEQLDLLGGEVVPVLRKEFAARR : failed
MTPAELISRLEEAWLNEKFSPELLENKSELVECVMEQLTHMEENLQRVRKGDLKASVHRMEIDRIRFVLSSFLRSRLKKIEKFFPHVLEKEKSRADGDPSFLSPEEFAFAKEYLANTEVYLRAVALKHMPPNLQSVDMMKAVPEPCLDSFVFLRVKEKQENILVEPETDEQREYVVDLDEGSQHLMRYRTIAPLVASGAVQLI : failed
MNQYVKIEVQQGDTLWSIADQVADTKKINKNDFIEWVADKNQLQTSDIQPGDELVIPLKKKHQDAYELATLEHHHHHH : failed
MIRILICFSLITASLLITSIFANSALLFTEFIHSLVDLIPIAFAFYALRIIDRIDSKYTYGLHRLEIVSSLFNIFTVVAGSVFSVYISTVELIEGSRGDFLLVLISSSIALSLSLVASTDKSEEGRVSGSKLHAIQDSLAYILAVISSLLIIIMKIYFIDPVSAYILNGVLVITSLSPLKFSYNILMEKSPIDTKSVETELQSIFPQVHHIHVWSICDHLNVATLHVRENPDLTLRELDKKREYAEKVLREKFGITHVTIQFEANNKKERLEKI : failed
MDRAAFPDCCVFLFGFFRRDFGAAGLYGMHDAGLLTGVQLVVAAITLTLFMLCIAQFMMTVKERGFKMALAISGFIFPSALLAGFIVNTLMTALRVKL : failed
MAKKVAVLAVNPVNGCGLFQYLEAFFENGISYKVFAVSDTKEIKTNSGMVLIVDDVIANLKGHEDEFDALVFSCGDAVPVFQQYANQPYNVDLMEVIKTFGEKGKMMIGHCAGAMMFDFTGITKGKKVAVHPLAKPAIQNGIATDEKSEIDGNFFTAQDENTIWTMLPKVIEALK : not failed

MRLNKLFILYSLFGILMASCIKDEAPNAEADITGISFEEDVLASARFNLNPSYNDNLQAYPILVKVKEGTPLNKLSPLFELTPGATISPESGSEHDFSDGKRVKYTVTSENKAWQRVYSIGVREQSVSDIPNEFHFEDIRLINGINPKYKYQEFYEEQDGLELTWASGNEGFNWAASSSATENYPTSQYDNGKNGKCAKLETRLTGSLGAMVGMPIAAGNLFIGEFDMTNALTSPLKATHFGTPFCYKPSRLKGWYKYKAGERFYENGGYTDRKDVMNIYAIFYEGESYNEAGEVTEVILDGNLPNQNYEHPSMVALALISNPHETDDWEAFDIPFDYQRYGKEIDETKLAKGKYKLSIIFASSKNGATFEGAPGSTLLVDDVELIFE has a reported protein production of failed

MSLKKYQLVIVGYGGMGSYHVTLASAADNLEVHGVFDILAEKREAAAQKGLKIYESYEAVLADEKVDAVLIATPNDSHKELAISALEAGKHVVCEKPVTMTSEDLLAIMDVAKRVNKHFMAHQNRRWDEDFLIIKEMFEQKTIGEMFHLESRVHGANGIPGDWRHLKAHGGGMVLDWGVHLLDQLLFLVDSNVKSVSANLSFALGDEVDDGFVTFITFENGITAQIEVGTTNFIKLPRWYVKGTEGTGIIHDWDLSGEIVKPTALAKTSEPTPIKAGQGLTKTMAPPSEEATNTLSLPAPAKLAPSFYNNFVDVLNNTSEPIVQNEEVYQVLKLIEAIFEAAETNRTVHSIEGHHHHHH has a reported protein production of not failed

MKFAVAVSGDRVNGPGESEEVQIYETDGGNVRLIEKYSNPALNATAARGVFMLKSALDHGANALVLSEIGSPGFNFIKNKMDVYIVPEMPVADALKLILEGKVSPATAPTHDHGHHH has a reported protein production of not failed
